Give IC50 for every item shown.
target: T1, cynoCSF1R ECD-Fc (cynomolgus); test: competition ELISA, blocking of human IL34 binding to cynoCSF1R ECD-Fc
T1 construct: also called cynomolgus CSF1R ECD
T1 sequence (chain, as listed by the source): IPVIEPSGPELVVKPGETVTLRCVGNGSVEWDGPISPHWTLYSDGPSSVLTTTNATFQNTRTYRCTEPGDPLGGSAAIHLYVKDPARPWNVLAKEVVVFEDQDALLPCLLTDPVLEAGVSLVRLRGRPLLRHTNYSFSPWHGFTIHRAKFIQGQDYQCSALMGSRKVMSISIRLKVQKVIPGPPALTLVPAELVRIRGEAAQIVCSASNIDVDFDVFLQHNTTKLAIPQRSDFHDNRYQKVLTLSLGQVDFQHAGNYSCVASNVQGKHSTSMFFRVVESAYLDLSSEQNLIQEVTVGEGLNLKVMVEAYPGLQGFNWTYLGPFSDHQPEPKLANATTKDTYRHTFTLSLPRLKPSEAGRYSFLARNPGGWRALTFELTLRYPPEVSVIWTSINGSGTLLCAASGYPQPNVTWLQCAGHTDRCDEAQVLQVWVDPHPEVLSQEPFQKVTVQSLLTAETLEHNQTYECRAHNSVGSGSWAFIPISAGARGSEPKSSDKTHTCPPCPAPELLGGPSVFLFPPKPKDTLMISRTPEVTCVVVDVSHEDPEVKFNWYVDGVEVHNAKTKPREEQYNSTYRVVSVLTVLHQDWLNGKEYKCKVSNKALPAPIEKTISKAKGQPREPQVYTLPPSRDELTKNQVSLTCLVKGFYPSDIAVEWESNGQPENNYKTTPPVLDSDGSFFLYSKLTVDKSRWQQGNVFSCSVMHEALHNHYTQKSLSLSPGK
Give a bare numeral; the unit µg/mL is implied.

Given the binder h0311-L0H1 (antibody, human IgG4 S228P, kappa, V domains shown, also called Ab13; huAb 0311-L0H1) VH: QVQLVQSGAEVKKPGSSVKVSCKASGYIFTDYNMHWVRQAPGQGLEWMGEINPNNGVVVYNQKFKGRVTITVDKSTSTAYMELSSLRSEDTAVYYCTRALYHSNFGWYFDSWGQGTLVTVSS VL: EIVLTQSPATLSLSPGERATLSCKASQSVDYDGDSHMNWYQQKPGQAPRLLIYTASNLESGIPARFSGSGSGTDFTLTISSLEPEDFAVYYCQQGNEDPWTFGQGTKVEIKR , write its reported IC50.
0.0504

Given the binder h0311-L1H2 (antibody, human IgG4 S228P, kappa, V domains shown, also called Ab16; huAb 0311-L1H2) VH: QVQLVQSGAEVKKPGSSVKVSCKASGYIFTDYNMHWVRQAPGQGLEWMGEINPNNGVVVYNQKFKGTTTLTVDKSTSTAYMELSSLRSEDTAVYYCTRALYHSNFGWYFDSWGQGTLVTVSS VL: DIVLTQSPATLSLSPGERATLSCKASQSVDYDGDSHMNWYQQKPGQAPRLLIYTASNLESGIPARFSGSGSGADFTLTISSLEPEDFAVYYCQQGNEDPWTFGQGTKVEIKR , write its reported IC50.
0.0486

Given the binder h0302-L1H1 (antibody, human IgG4 S228P, kappa, V domains shown, also called Ab8; huAb 0302-L1H1) VH: QVQLVQSGAEVKKPGSSVKVSCKASGYTFSDFNIHWVRQAPGQGLEWMGYINPYTDVTVYNEKFKGRVTITSDKSTSTAYMELSSLRSEDTAVYYCASYFDGTFDYALDYWGQGTLVTVSS VL: EIVLTQSPATLSLSPGERATLSCRASESVDNYGLSFMNWYQQKPGQAPRLLIYTASNLESGIPARFSGSGSRTDFTLTISSLEPEDFAVYYCQQSKELPWTFGQGTKVEIKR , write its reported IC50.
0.676
